- Tested on: P388 leukemia ip, CD2F1 mice, survival T/C
- Measurement Description: NCI In Vivo Anticancer Drug Screen. Data for tumor model P388 Leukemia (intraperitoneal) in CD2F1 (CDF1) mice
- Assay Conditions: endpoint: median survival time; dose: 120.0 mg/kg/injection; schedule: Q01DX005 (ip); vehicle: saline with Tween-80; higher = longer survival
Inconclusive results and toxic doses are left out.
Exercise: for every item that follows, state its recorded T/C.

// below: answered compounds
> print(dat)
                                   compound    value.observed
1  Cc1ccc(Nc2nnc(CSc3ccc(Cl)cc3)s2)c(S(=O)(=O)O)c1   94 % of control
2  OC1COC(Sc2ncc[nH]2)C(O)C1O (stereo unspecified)   97 % of control
3  Cc1ccc(C(=O)CC2(O)C(=O)Nc3c(Cl)cc(Cl)cc32)cc1 (stereo unspecified)  108 % of control
4                   COC(=O)Nc1cn2nc(C)sc2n1   94 % of control
5  Cc1cccc(C(C)C)c1NC(=O)C(=O)C(C#N)c1ccc(CC#N)cc1 (stereo unspecified)   98 % of control

Here is another compound to look at.
Task: // returns reported T/C for input CC1=CN2C(c3cccc([N+](=O)[O-])c3)=NON(c3ccc(C)cn3)C2C=C1 (stereo unspecified)
Result: 86 % of control
